# system: Insulin receptor-related protein (Homo sapiens)
# conditionsUsed: at 1 µM
readoutKind: residual activity

Worked examples, 3 compounds total:
{"columns": ["smilesRepresentation", "readoutKind", "observedMeasurement"],
 "data": [
  ["N#Cc1cnc2cnc(NCc3cccnc3)cc2c1Nc1ccc(F)c(Cl)c1", "residual activity", "90%"],
  ["Nc1cccc(-c2cc3c(Oc4cccc(O)c4)ncnc3[nH]2)c1", "residual activity", "98%"],
  ["CO[C@H]1C[C@@H]2CC[C@@H](C)[C@@](O)(O2)C(=O)C(=O)N2CCCC[C@H]2C(=O)O[C@H]([C@H](C)C[C@@H]2CC[C@@H](O)[C@H](OC)C2)CC(=O)[C@H](C)/C=C(\\C)[C@@H](O)[C@@H](OC)C(=O)[C@H](C)C[C@H](C)/C=C/C=C/C=C/1C", "residual activity", "126%"]
]}

For every record below, what is its residual activity?
1. N#CC(C#N)=C(N)/C(C#N)=C/c1ccc(O)cc1
2. O=Nc1c(-c2c(O)[nH]c3ccccc23)[nH]c2ccccc12
3. CCC(=O)Nc1ccc2ncnc(Nc3cccc(Br)c3)c2c1

**A:**
1: 142%; 2: 2%; 3: 111%

###

# system: Tyrosine-protein kinase BTK (Homo sapiens) (UniProt Q06187)
# Sequence (Q06187 whole entry): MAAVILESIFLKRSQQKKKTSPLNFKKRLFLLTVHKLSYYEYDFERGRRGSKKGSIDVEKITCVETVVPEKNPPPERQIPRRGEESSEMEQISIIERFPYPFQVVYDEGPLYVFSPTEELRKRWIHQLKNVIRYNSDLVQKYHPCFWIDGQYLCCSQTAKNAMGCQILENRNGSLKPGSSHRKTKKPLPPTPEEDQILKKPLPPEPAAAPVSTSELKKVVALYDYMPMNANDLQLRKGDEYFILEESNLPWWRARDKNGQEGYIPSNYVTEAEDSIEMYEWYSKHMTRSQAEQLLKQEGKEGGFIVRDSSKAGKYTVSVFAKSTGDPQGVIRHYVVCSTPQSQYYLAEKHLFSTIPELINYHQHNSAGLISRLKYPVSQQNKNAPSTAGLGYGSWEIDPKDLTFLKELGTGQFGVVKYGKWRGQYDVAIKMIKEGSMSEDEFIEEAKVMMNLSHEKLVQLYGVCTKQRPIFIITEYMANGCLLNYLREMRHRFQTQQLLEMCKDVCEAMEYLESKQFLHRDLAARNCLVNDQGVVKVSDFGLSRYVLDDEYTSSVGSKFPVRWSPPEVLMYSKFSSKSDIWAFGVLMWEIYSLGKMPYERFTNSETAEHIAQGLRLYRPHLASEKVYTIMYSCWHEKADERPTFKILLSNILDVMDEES
# conditionsUsed: at 10 µM
Range-based classes on measured residual activity: 0 (below 30%), 1 (30% to below 90%), 2 (90% or more)

{"columns": ["smilesRepresentation", "qualitativeLabel"],
 "data": [
  ["NC(=O)c1ccc2[nH]c(-c3ccc(Oc4ccc(Cl)cc4)cc3)nc2c1", 1],
  ["CNc1cc2c(Nc3cccc(Br)c3)ncnc2cn1", 1],
  ["CCC(=O)Nc1ccc2ncnc(Nc3cccc(Br)c3)c2c1", 1],
  ["CN(C)c1ccc(/C=C2\\C(=O)Nc3ccccc32)cc1", 1]
]}

# ---- query molecule ----
**Q:** Sort `COc1cccc(-c2cc(=O)c3ccccc3o2)c1N` into one of the categories.
**A:** 2

###

# system: Aurora kinase B (Homo sapiens) (UniProt Q96GD4)
# Sequence (Q96GD4 whole entry): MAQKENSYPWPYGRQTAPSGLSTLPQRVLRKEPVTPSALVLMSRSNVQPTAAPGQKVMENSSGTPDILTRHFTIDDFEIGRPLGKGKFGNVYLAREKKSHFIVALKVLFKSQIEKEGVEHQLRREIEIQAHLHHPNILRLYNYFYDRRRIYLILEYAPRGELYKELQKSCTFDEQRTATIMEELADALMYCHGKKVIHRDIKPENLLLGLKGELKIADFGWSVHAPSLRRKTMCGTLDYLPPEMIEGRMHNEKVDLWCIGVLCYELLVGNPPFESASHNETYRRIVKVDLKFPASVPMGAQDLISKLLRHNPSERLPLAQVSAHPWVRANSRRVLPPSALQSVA
# conditionsUsed: at 10 µM
// thresholds for residual activity classes: bin A: < 6%; bin B: ≥ 6% and < 70%; bin C: ≥ 70%

Answered examples (5):
{"columns": ["smilesRepresentation", "system", "qualitativeLabel"],
 "data": [
  ["O=C1NC(=O)c2cc(Nc3ccc(F)cc3)c(Nc3ccc(F)cc3)cc21", "Aurora kinase B (Homo sapiens) (UniProt Q96GD4)", "bin C"],
  ["COc1ccc(S(=O)(=O)N(CCO)c2ccccc2CN(C)C/C=C/c2ccc(Cl)cc2)cc1", "Aurora kinase B (Homo sapiens) (UniProt Q96GD4)", "bin C"],
  ["Nc1nc(Nc2ccc(S(N)(=O)=O)cc2)nn1C(=S)Nc1c(F)cccc1F", "Aurora kinase B (Homo sapiens) (UniProt Q96GD4)", "bin A"],
  ["CCN(CC)C(=O)c1ccc(Nc2nc(OCC3CCCCC3)c3nc[nH]c3n2)cc1", "Aurora kinase B (Homo sapiens) (UniProt Q96GD4)", "bin A"],
  ["N#CCCc1ccc2c(c1)-c1[nH]c3ccc([N+](=O)[O-])cc3c1CC(=O)N2", "Aurora kinase B (Homo sapiens) (UniProt Q96GD4)", "bin A"]
]}

**Q:** Note: place this molecule into its band. Item: `O=C1NC(=O)/C(=C\c2ccc3nccnc3c2)S1`
**A:** bin B

**Q:** Lab log: `COc1cccc(-c2cc(=O)c3ccccc3o2)c1N` — assign residual activity category
**A:** bin C

**Q:** Which residual activity band matches `C[C@@H](N)[C@H]1CC[C@H](C(=O)Nc2ccncc2)CC1` ?
**A:** bin C

**Q:** Class (by measured residual activity) for `COc1cc2ncnc(Nc3ccc(O)c(Br)c3)c2cc1OC`
**A:** bin A

**Q:** Into which bin does this molecule go? `O=C1NC(=O)c2c1c1c3ccccc3[nH]c1c1[nH]c3cc(Br)ccc3c21`
**A:** bin A

###

# system: Aurora kinase C (Homo sapiens) (UniProt Q9UQB9)
# Sequence (Q9UQB9 whole entry): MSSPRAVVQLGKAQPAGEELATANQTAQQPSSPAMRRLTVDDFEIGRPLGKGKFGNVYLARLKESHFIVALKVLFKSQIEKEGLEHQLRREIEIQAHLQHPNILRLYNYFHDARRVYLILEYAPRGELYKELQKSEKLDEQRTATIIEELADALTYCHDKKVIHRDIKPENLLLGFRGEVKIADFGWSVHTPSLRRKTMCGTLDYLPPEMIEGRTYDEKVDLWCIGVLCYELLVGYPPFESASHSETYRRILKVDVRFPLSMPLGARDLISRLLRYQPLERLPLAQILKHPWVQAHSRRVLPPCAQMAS
# conditionsUsed: at 1 µM
readoutKind: residual activity (%)
Give bare numbers, in %.

{"columns": ["smilesRepresentation", "residual activity [%]"],
 "data": [
  ["Nc1cccc(-c2cc3c(Oc4cccc(O)c4)ncnc3[nH]2)c1", 72]
]}

Each of the following entries comes with a recorded value; kindly state residual activity for each.
1. CO[C@@H]1[C@H](N(C)C(=O)c2ccccc2)C[C@H]2O[C@]1(C)n1c3ccccc3c3c4c(c5c6ccccc6n2c5c31)C(=O)NC4
2. O=C(Nc1cccc(Nc2cc(Nc3cccc(C(F)(F)F)c3)ncn2)c1)C1CC1
3. Ic1cccc(CSc2nnc(-c3ccncc3)o2)c1
4. Cc1ccc(S(=O)(=O)/C=C/C#N)cc1

**A:**
1: 62; 2: 90; 3: 79; 4: 93

###

# system: Tyrosine-protein kinase FRK (Homo sapiens) (UniProt P42685)
# Sequence (P42685 whole entry): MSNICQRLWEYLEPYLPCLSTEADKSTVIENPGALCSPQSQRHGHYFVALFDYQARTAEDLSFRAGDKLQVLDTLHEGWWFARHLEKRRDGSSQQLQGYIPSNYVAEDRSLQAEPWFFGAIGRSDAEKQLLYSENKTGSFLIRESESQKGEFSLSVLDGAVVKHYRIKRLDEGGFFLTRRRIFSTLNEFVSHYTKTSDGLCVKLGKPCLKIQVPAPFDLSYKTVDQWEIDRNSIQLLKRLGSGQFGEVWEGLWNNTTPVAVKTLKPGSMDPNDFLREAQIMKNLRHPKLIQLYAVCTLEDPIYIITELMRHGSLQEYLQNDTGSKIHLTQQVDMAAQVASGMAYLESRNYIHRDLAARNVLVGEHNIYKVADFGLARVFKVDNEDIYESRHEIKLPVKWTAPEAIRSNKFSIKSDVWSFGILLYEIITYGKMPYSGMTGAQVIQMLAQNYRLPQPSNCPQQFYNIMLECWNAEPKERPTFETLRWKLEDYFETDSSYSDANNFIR
# conditionsUsed: at 1 µM
readoutKind: residual activity
Put down the number, then write its unit next to it.

{"columns": ["smilesRepresentation", "system", "residual activity"],
 "data": [
  ["O=C(Nc1cccc(Nc2nccc(Nc3cccc(C(F)(F)F)c3)n2)c1)C1CC1", "Tyrosine-protein kinase FRK (Homo sapiens) (UniProt P42685)", "53%"],
  ["COc1cccc(-c2cc(=O)c3ccccc3o2)c1N", "Tyrosine-protein kinase FRK (Homo sapiens) (UniProt P42685)", "93%"],
  ["Cc1cc2ncc(-c3ccccc3)nc2cc1C", "Tyrosine-protein kinase FRK (Homo sapiens) (UniProt P42685)", "105%"]
]}

State the recorded residual activity for every item in the following list.
1. Nc1n[nH]c2nnc(-c3c(-c4ccccc4)nn4ccccc34)cc12
2. COc1ccc(OC)c2c(=S)c3ccccc3[nH]c12
3. Cc1nc(-c2ccccc2)c(-c2ccncc2)o1
4. COc1cc2ncnc(N3CCN(C(=O)Nc4ccc(Oc5ccccc5)cc4)CC3)c2cc1OC
5. Cn1cc(/C=C2\C(=O)Nc3ccc(S(N)(=O)=O)cc32)c2ccccc21
6. O=C1Nc2ccc(Br)cc2/C1=C\c1cc2c([nH]1)CCCC2
7. O=C1Nc2cc(Br)ccc2/C1=C1/Nc2ccccc2/C1=N\O

**A:**
99%
95%
1%
96%
74%
102%
2%

`CC#CC(=O)Nc1cc2c(Nc3ccc(F)c(Cl)c3)ncnc2cn1` yielded residual activity of 97%

###

# system: cGMP-dependent protein kinase 1 (Homo sapiens) (UniProt Q13976)
# Sequence (whole entry): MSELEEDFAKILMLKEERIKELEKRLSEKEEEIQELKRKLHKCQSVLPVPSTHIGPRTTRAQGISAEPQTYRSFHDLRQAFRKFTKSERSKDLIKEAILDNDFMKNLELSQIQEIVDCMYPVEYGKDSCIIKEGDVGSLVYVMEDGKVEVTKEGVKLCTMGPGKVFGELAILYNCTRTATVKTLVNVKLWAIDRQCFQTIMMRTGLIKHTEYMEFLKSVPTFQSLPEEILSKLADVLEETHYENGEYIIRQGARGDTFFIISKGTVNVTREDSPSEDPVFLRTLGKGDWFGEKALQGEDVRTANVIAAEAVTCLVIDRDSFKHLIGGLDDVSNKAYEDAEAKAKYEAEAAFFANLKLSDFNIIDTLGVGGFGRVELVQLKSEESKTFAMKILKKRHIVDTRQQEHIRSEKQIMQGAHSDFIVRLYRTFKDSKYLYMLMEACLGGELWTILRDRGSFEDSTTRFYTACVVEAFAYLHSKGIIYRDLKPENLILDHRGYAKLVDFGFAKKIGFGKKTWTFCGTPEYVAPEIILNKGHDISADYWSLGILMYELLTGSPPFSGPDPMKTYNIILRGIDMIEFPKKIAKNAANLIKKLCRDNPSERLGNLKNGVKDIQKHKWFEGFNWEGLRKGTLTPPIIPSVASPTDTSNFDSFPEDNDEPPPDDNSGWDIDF
# conditionsUsed: at 1 µM
readoutKind: residual activity (%)
Give bare numbers, in %.

Provide the reported residual activity of each entry below, same order.
1. O=C1NC(=O)/C(=C/c2ccc3c(c2)OC(F)(F)O3)S1
2. Cc1cncc2cccc(S(=O)(=O)N3CCCN(C(=O)CN)C[C@H]3C)c12
3. CC(=O)O/N=C1\C(=C2\C(=O)Nc3cc(Br)ccc32)Nc2ccccc21

**A:**
105
93
101

I need residual activity for every entry listed below, if you could help.
1. Cn1cnc2cc3c(Nc4cccc(Br)c4)ncnc3cc21
2. CC#CC(=O)Nc1cc2c(Nc3ccc(F)c(Cl)c3)ncnc2cn1
3. O=C1Nc2ccccc2/C1=C1/Nc2ccccc2/C1=N\OCCC(O)CO (configuration not stated)
4. COc1ccc(OC)c2c(=S)c3ccccc3[nH]c12
5. CO[C@@H]1[C@H](N(C)C(=O)c2ccccc2)C[C@H]2O[C@]1(C)n1c3ccccc3c3c4c(c5c6ccccc6n2c5c31)C(=O)NC4
6. Nc1ccc2ncnc(NCCc3ccc(Oc4ccccc4)cc3)c2c1
7. Oc1n[nH]c2nnc(-c3c(-c4ccccc4)nn4ccccc34)cc12

**A:**
1. 115
2. 103
3. 56
4. 93
5. 8
6. 108
7. 99

Please state residual activity for every compound in the list that follows.
1. C[C@@H](N)[C@H]1CC[C@H](C(=O)Nc2ccncc2)CC1
2. O=Nc1c(-c2c(O)[nH]c3ccccc23)[nH]c2ccccc12
3. O=C(Nc1cccc(Nc2cc(Nc3cccc(C(F)(F)F)c3)ncn2)c1)C1CC1
4. COc1ccc(C(=O)Nc2sc3c(c2C(N)=O)CCCC3)cc1OC
5. O=C1c2ccccc2-[n+]2ccc3c([nH]c4ccccc43)c21

**A:**
1. 77
2. 77
3. 117
4. 104
5. 94
